Hello, the source for this data is patent US20230303690A1, in case you need it.

TESTED_TARGET: T1, human LAG3 expressed on cells (human, UniProt P18627 23-525)
T1 sequence (looked up): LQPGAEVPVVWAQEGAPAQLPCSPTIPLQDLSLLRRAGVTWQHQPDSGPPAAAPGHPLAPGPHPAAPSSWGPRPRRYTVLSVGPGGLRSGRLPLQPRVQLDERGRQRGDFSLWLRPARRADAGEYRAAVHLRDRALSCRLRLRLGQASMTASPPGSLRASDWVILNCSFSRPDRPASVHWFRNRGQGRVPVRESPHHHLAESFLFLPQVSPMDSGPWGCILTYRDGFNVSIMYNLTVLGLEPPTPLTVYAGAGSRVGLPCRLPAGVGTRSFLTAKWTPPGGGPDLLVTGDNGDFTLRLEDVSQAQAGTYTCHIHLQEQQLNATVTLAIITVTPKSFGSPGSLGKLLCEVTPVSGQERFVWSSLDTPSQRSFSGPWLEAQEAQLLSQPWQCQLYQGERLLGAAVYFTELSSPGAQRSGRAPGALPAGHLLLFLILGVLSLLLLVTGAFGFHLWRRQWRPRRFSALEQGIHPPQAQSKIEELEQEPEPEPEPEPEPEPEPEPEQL
TEST_DETAILS: cell-based or functional assay
Friendly reminder: IL-2, % of BMS, at 33.33333333 ug/mL below 40% is fulfilled, at or above is not fulfilled.

>  <BINDER>
sdAb No. 1 (VHH, the tested form was captured by anti-human Fc, its Fc is not described; also called sdAb 1; not shown: Fc part implied by anti-human Fc capture) VHH: QLQLVESGGGLVQAGGSLRLSCAASGFTFDDYAIGWFRQAPGKEREGVSCIRSSDGSTYYADSVKGRFTISSDNAKNTVYLQMNSLKPEDTAVYYCAKDNYSDCRGPYHYWGQGTQVTVSS

>  <LABEL>
not fulfilled

$$$$
>  <BINDER>
sdAb No. 24 (VHH, Fc of the tested form not described; also called sdAb 24; not shown: Fc part implied by anti-human Fc capture) VHH: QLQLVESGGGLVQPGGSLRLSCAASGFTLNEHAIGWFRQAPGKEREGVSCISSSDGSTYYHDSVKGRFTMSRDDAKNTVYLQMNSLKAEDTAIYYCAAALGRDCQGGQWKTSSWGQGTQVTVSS

>  <LABEL>
not fulfilled

$$$$
>  <BINDER>
sdAb No. 20 (VHH, Fc of the tested form not described; also called sdAb 20; not shown: Fc part implied by anti-human Fc capture) VHH: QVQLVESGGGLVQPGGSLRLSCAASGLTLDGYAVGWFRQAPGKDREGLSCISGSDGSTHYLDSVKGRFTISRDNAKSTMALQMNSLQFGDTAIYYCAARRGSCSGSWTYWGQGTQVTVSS

>  <LABEL>
fulfilled

$$$$
>  <BINDER>
sdAb No. 17 (VHH, Fc of the tested form not described; also called sdAb 17; not shown: Fc part implied by anti-human Fc capture and anti-human IgG1 Fc detection) VHH: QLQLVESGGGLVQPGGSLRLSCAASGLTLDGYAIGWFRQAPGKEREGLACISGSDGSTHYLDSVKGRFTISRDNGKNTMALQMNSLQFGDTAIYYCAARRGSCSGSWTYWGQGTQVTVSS

>  <LABEL>
fulfilled

$$$$
>  <BINDER>
sdAb No. 73 (VHH, Fc not described; also called sdAb 73; not shown: Fc part implied by anti-human Fc capture) VHH: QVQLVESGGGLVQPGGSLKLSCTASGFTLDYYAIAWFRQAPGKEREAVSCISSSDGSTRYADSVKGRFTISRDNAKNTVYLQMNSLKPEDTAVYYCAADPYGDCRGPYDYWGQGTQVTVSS

>  <LABEL>
fulfilled

$$$$
>  <BINDER>
sdAb No. 27 (VHH, Fc of the tested form not described; also called sdAb 27; not shown: Fc part implied by anti-human Fc capture and anti-human IgG Fc detection) VHH: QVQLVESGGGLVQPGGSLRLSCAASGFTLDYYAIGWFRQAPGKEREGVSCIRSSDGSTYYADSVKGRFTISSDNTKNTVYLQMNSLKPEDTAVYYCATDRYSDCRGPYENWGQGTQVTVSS

>  <LABEL>
not fulfilled

$$$$
>  <BINDER>
sdAb No. 18 (VHH, Fc of the tested form not described; also called sdAb 18; not shown: Fc part implied by anti-human Fc capture) VHH: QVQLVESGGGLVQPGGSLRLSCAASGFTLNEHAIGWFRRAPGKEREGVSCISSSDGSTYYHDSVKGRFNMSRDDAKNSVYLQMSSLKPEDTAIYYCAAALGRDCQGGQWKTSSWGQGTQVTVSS

>  <LABEL>
not fulfilled

$$$$
